# experimentalTarget: T1, pertussis toxin protein (Bordetella pertussis, UniProt P04977 35-269; P04978 28-226; P04979 29-227; P0A3R5 43-152; P04981 35-133)
# T1 construct: also called PTx; PT
# protocolDescription: competition ELISA
pKd: −log10 of the molar value.
Below is a list of entries, each paired with its recorded pKd value.

binder: murine m11E6 antibody (antibody, V domains shown, also called parental murine 11E6 antibody; mouse 11E6) VH: EVKVVESGGGLVQPGGSLRLSCTTSGFTFTDYYVSWVRQPPGKALEWLGFIRNKVNGYTTEFSSSVKGRFTISRDNSQSILYLQMNTLRVEDSATYYCARVSYYGRGWYFDYWGQGTTLTVSS VL: DIVMTQSTSSLSASLGDRVTISCRASQDIDNYLSWFQQKPDGTVKLLIYYTSRLHSGVPSRFSGSGSGTDYSLTISSLDQEDIATYFCQQGNTFPWTFGGGTKLEIK
pKd: 8.30
//
binder: chimeric 11E6 antibody (antibody, V domains shown, also called ch11E6) VH: EVKVVESGGGLVQPGGSLRLSCTTSGFTFTDYYVSWVRQPPGKALEWLGFIRNKVNGYTTEFSSSVKGRFTISRDNSQSILYLQMNTLRVEDSATYYCARVSYYGRGWYFDYWGQGTTLTVSS VL: DIVMTQSTSSLSASLGDRVTISCRASQDIDNYLSWFQQKPDGTVKLLIYYTSRLHSGVPSRFSGSGSGTDYSLTISSLDQEDIATYFCQQGNTFPWTFGGGTKLEIK
pKd: 8.30
//
binder: chimeric 1B7 antibody (antibody, V domains shown, also called ch1B7) VH: QVQLQQPGSELVRPGASVKLSCKASGYKFTSYWMHWVKQRPGQGLEWIGNIFPGSGSTNYDEKFNSKATLTVDTSSNTAYMQLSSLTSEDSAVYYCTRWLSGAYFDYWGQGTTLTVSS VL: QIVLTQSPALMSASPGEKVTMTCSASSSVSFMYWYQQKPRSSPKPWIYLTSNLPSGVPARFSGSGSGTSYSLTISSMEAEDAATYYCQQWSSHPPTFGSGTKLEIK
pKd: 9.30
//
binder: murine m1B7 antibody (antibody, V domains shown, also called parental murine 1B7 antibody; mouse 1B7) VH: QVQLQQPGSELVRPGASVKLSCKASGYKFTSYWMHWVKQRPGQGLEWIGNIFPGSGSTNYDEKFNSKATLTVDTSSNTAYMQLSSLTSEDSAVYYCTRWLSGAYFDYWGQGTTLTVSS VL: QIVLTQSPALMSASPGEKVTMTCSASSSVSFMYWYQQKPRSSPKPWIYLTSNLPSGVPARFSGSGSGTSYSLTISSMEAEDAATYYCQQWSSHPPTFGSGTKLEIK
pKd: 9.40
